test system: S. typhimurium TA104 containing pMOL1068; conditions: TA104 pMOL1068
Simple rule here: MINIMAL DETECTED CONCENTRATION (MDC) less than 1 nmol/assay is 1 (yes), otherwise 0 (no).

| compound | class |
| --- | --- |
| COS(C)(=O)=O [MMS, Methylmethanesulphonate] | 0 (no) |
| CO[C@@H]1[C@@H](OC(N)=O)[C@@H](O)[C@H](Oc2ccc3c(O)c(NC(=O)c4ccc(O)c(CC=C(C)C)c4)c(=O)oc3c2C)OC1(C)C [novobiocine] | 0 (no) |
| c1ccc2c(c1)cc1ccc3cccc4ccc2c1c34 [BαP, benzo-α-pyrene] | 1 (yes) |
| c1ccc2c(c1)ccc1c3ccccc3ccc21 [chrysene] | 0 (no) |
| OO [H2O2, hydrogen peroxide] | 0 (no) |
